# testProtocol: Stat Signaling Pathway (AID 446);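 further: ME-180 cervical cancer cells given 40 pM IL-6 alongside compound; SIE-controlled beta-lactamase reporter measured as 460/530 nm FRET emission ratio; on the % scale 0 is the no-effect control and ±100 the full control effect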
# conditionsUsed: ME-180 (cervical carcinoma) SIE beta-lactamase reporter, IL-6 stimulated, 5 h; at 17.2 µM (top of the series) unless noted
Inconclusive results are not listed. Calls of active or inactive are those of the source. The call rests on the fitted dose curve; in most records, active means well fitted curve in either direction with a large enough effect (not every such curve was filed as active); inconclusive means small, poorly fitted or top-dose-only effect, or another doubt; inactive means flat fitted curve, though single readings scatter.
Documented activity, negative = inhibition across a set of molecules
readoutLabel: activity, negative = inhibition

[
  {
    "molecule": "CCSc1nnc(N(CCC(=O)O)CCC(=O)O)s1",
    "reportedMeasurement": "-4.16% (inactive)"
  },
  {
    "molecule": "CCOC(=O)CC(=O)CSc1[nH]c(=O)cc(C)c1C#N",
    "reportedMeasurement": "13.5% (inactive)"
  },
  {
    "molecule": "CCc1ccc(-c2cn3nc(C)c(C)nc3n2)cc1",
    "reportedMeasurement": "11.8% (inactive)"
  },
  {
    "molecule": "C[N+](C)(C)CCN[N@@+]1(C)CCCc2ccccc21",
    "reportedMeasurement": "7.61% [at 7.69 µM] (inactive)"
  },
  {
    "molecule": "CC1(C)Cc2c(C#N)c(OCC(=O)c3ccccc3)nc(-c3ccoc3)c2CO1",
    "reportedMeasurement": "12.9% (inactive)"
  },
  {
    "molecule": "CNc1oc(-c2ccc(Cl)cc2)nc1C#N",
    "reportedMeasurement": "5.14% (inactive)"
  },
  {
    "molecule": "CCN(CC)CCNc1ncnc2c1[nH]c1ccc(OC)cc12",
    "reportedMeasurement": "3.82% (inactive)"
  },
  {
    "molecule": "CCOc1ccc(-c2nc(C#N)c(N3CCN(CC)CC3)o2)cc1",
    "reportedMeasurement": "19.7% (inactive)"
  },
  {
    "molecule": "c1ccc(Cc2nnc3n2CCCCC3)cc1",
    "reportedMeasurement": "5.83% (inactive)"
  },
  {
    "molecule": "CC1(C(=O)CSc2nc3ccccc3[nH]2)CCC(=O)O1 (centres undefined)",
    "reportedMeasurement": "-2.98% (inactive)"
  },
  {
    "molecule": "CCN(CC)CCN1C(=O)C(=O)/C(=C(/O)c2c(C)[nH]c(C(=O)OC)c2C)C1c1ccco1 (centres undefined)",
    "reportedMeasurement": "-0.9% (inactive)"
  },
  {
    "molecule": "CCCn1nnc(NC(=O)c2cc(Br)cc(Br)c2OC)n1",
    "reportedMeasurement": "-4.41% (inactive)"
  },
  {
    "molecule": "CN1CCc2c(c3c(n2C)CCN(C)[C@@H]3c2cccnc2)[C@H]1c1cccnc1",
    "reportedMeasurement": "9.53% (inactive)"
  },
  {
    "molecule": "CC(C)(C)NC(=O)CSc1nsc(SCC(=O)NC(C)(C)C)c1C#N",
    "reportedMeasurement": "3.19% (inactive)"
  },
  {
    "molecule": "Cc1cccc(-n2ncc3c(NCCN4CCOCC4)ncnc32)c1",
    "reportedMeasurement": "4.97% (inactive)"
  },
  {
    "molecule": "C=CCn1c(=S)[nH]c2nc3c(cc2c1=O)CCCC3",
    "reportedMeasurement": "-11.2% (inactive)"
  },
  {
    "molecule": "CN(C)c1ccc(C2C3C(=O)N(c4ccc(C(=O)O)cc4)C(=O)C3ON2c2ccccc2)cc1 (centres undefined)",
    "reportedMeasurement": "5.33% (inactive)"
  },
  {
    "molecule": "COc1cccc(-c2nn3c(-c4ccco4)nnc3s2)c1",
    "reportedMeasurement": "6.95% (inactive)"
  },
  {
    "molecule": "O=C1C(=O)N(CCN2CCOCC2)C(c2ccccn2)/C1=C(/O)c1ccccc1 (centres undefined)",
    "reportedMeasurement": "-1.75% (inactive)"
  },
  {
    "molecule": "O=C1N[C@@H](Cc2cnc[nH]2)C(=O)N2CCC[C@@H]12",
    "reportedMeasurement": "4.85% (inactive)"
  },
  {
    "molecule": "O=S(=O)(c1cccc(-c2csc(-c3ccccc3)n2)c1)N1CCOCC1",
    "reportedMeasurement": "-9.15% (inactive)"
  },
  {
    "molecule": "Cc1nn2c(-c3ccc(Cl)cc3)nnc2s1",
    "reportedMeasurement": "14.5% (inactive)"
  },
  {
    "molecule": "CCOC(=O)CNC(=O)CNC(=O)c1ccc(OC)cc1",
    "reportedMeasurement": "14.1% (inactive)"
  },
  {
    "molecule": "NC(=O)CSc1nc(N)c2c3c(sc2n1)CCCCC3",
    "reportedMeasurement": "-4.35% (inactive)"
  }
]
